- MEASURED_ON: Neuropeptide Y receptor type 2 (Homo sapiens)
- Sequence (P49146 whole entry): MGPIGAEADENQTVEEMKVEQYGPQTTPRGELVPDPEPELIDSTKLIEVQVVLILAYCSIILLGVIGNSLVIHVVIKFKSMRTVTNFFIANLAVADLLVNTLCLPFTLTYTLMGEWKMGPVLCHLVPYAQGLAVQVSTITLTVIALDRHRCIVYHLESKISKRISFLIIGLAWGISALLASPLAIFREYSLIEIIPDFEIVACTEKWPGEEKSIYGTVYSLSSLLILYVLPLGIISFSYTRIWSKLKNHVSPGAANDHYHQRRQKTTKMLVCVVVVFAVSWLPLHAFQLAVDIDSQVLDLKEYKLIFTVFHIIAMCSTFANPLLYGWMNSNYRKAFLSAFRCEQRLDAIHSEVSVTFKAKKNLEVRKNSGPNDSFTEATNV
- TEST_DETAILS: Displacement of Cy5-pNPY from human Y2 receptor expressed in CHO cells after 90 to 120 mins by flow cytometry
- Assay type: cell-based
Residues, ends and D or L forms follow the SMILES beside them.
ENDPOINT: Ki

{"columns": ["MOLECULE", "Ki"],
 "data": [
  ["CC(=O)N[C@@H](Cc1ccc(O)cc1)C(=O)N[C@@H](CCCNC(=N)N)C(=O)N[C@H]1CCC[C@H]1C(=O)N[C@@H](CCCN=C(N)N)C(=O)N[C@@H](Cc1ccc(O)cc1)C(N)=O (HELM PEPTIDE1{[ac].Y.R.[O=C([C@@H]1CCC[C@@H]1N[*:1])[*:2]].R.Y.[am]}$$$$V2.0)", "> 1000 nM"]
]}

The molecule listed as CCCC[C@H](NC(=O)[C@H](CC(N)=O)NC(=O)[C@@H](NC(=O)[C@H](Cc1ccc(O)cc1)NC(=O)[C@H](CCCNC(=N)N)NC(=O)[C@H](CCCNC(=N)N)NC(C)=O)[C@@H](C)CC)C(=O)N[C@@H](CC(C)C)C(=O)N[C@H](C(=O)N[C@@H](CCCNC(=N)N)C(=O)N1CCC[C@H]1C(=O)N[C@@H](CCCNC(=N)N)C(=O)N[C@@H](Cc1ccc(O)cc1)C(N)=O)[C@@H](C)O (HELM PEPTIDE1{[ac].R.R.Y.I.N.[Nle].L.T.R.P.R.Y.[am]}$$$$V2.0) shows Ki equal to > 1000 nM
